B1: C22orf15 (parent)
chain: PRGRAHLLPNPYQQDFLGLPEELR

variants of: B1; assay: protein stability index of a GFP-peptide fusion (GPS, HEK-293T) (PSI 1-6); higher = more stable; details: c terminus: a fixed tail appended;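 note: lentivirally expressed fusions sorted by FACS into six bins by GFP to DsRed ratio, PSI derived from sequencing read proportions per bin multiplied by bin number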
Kindly return rule met if reported protein stability index is no lower than 4; return rule not met if it is lower.

[[record]]
variant_name = "R4F"
classification = "rule not met"

[[record]]
variant_name = "Q14W"
classification = "rule not met"

[[record]]
variant_name = "L17E"
classification = "rule met"

[[record]]
variant_name = "P20Y"
classification = "rule not met"

[[record]]
variant_name = "L17H"
classification = "rule met"

[[record]]
variant_name = "P20V"
classification = "rule not met"

[[record]]
variant_name = "R4T"
classification = "rule not met"

